- Target or test system: Muscarinic acetylcholine receptor M4 (Homo sapiens)
- Method notes: M4-linked GIRK flux change, two-sided – cell-based, HEK293 M4/GIRK, thallium flux, BTC-AM, M4 allosteric agonist project, primary screen (AID 625);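 further: thallium influx through GIRK channels coupled to M4 in HEK293 cells with BTC-AM dye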
- Experimental context: at 10 µM, actives lie on both sides
fluorescence slope class ranges: low = under 0.005, mid = from 0.005 up to 0.006, high = 0.006 and over

{"Compound": "CCOC(=O)C1=C(Cn2cnc3ccccc32)NC(=O)NC1c1cc(C)ccc1C (stereo not drawn)", "Discrete label": "low"}

Any idea which band Cc1occc1-c1nnc(SCC(=O)NCC2CCCO2)n1C (stereo not drawn) is in?
mid

Also, COc1ccc(C(=O)N2CCOCC2)cc1Br please.
mid

Also, COc1ccc(NC(=O)CSc2nnc(-c3ccncc3)n2CC2CCCO2)c(OC)c1 (stereo not drawn) please.
high

---

# maps each entry to its inhibition of aggregation
- Method notes: reduction of polyQ htt aggregates in cells – imaging, exon1htt(103Q)mCFP cells, high-content imaging, primary screen (AID 483);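 further: compound exposure lasted 3 days before fixation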
- Experimental context: exon1htt(103Q)mCFP cell line, aggregate imaging, at 2 µM; stronger effect = higher value
Please state the figure in %; there is no need to write the unit.

Would you please look over these solved cases?
{"Molecule": "COc1ccc(CC(NC(C)=O)C(=O)NC2CCN(c3nc(C)cc(C)c3C#N)CC2)c(OC)c1 (stereo unspecified)", "inhibition of aggregation, %": -12.3}
{"Molecule": "COc1ccccc1NC(=O)C1CC(=O)N(c2ccc(F)cc2)C1 (stereo unspecified)", "inhibition of aggregation, %": 13.8}
{"Molecule": "CCOC(=O)c1cnc(-n2nc(C)cc2C)nc1N1CC(C)OC(C)C1 (stereo unspecified)", "inhibition of aggregation, %": 29.7}
{"Molecule": "CC(C)OC(=O)CSc1nnc(-c2cccnc2)n1Cc1ccccc1", "inhibition of aggregation, %": 8.1}
{"Molecule": "CCOc1cc(NC(=O)c2ccco2)c(OCC)cc1NC(=O)COc1ccccc1C", "inhibition of aggregation, %": -11.9}
{"Molecule": "COc1cccc(Nc2nc(=O)[nH]nc2C)c1", "inhibition of aggregation, %": -14.2}
{"Molecule": "CCC(=O)N(Cc1ccco1)c1nc(-c2cc(OC)ccc2OC)cs1", "inhibition of aggregation, %": 18.8}
{"Molecule": "COc1ccc(CNC(=O)C(c2ccco2)N(Cc2cccs2)C(=O)Cc2cccs2)cc1 (stereo unspecified)", "inhibition of aggregation, %": -14.3}

State the recorded inhibition of aggregation for this entry: CC1CC(C)CN(CC(=O)Nc2ccc(S(N)(=O)=O)cc2)C1 (stereo unspecified)
-27.5

Also, COc1ccc2ccccc2c1CN1CCCC(CO)C1 (stereo unspecified) please.
4.4

Also, O=C(COc1ccc(S(=O)(=O)NC2CCCCC2)cc1)NCc1ccccn1 please.
-2.7

---

- Method notes: endothelial E-selectin expression blockers – imaging, HUVEC, immunofluorescence, MLSMR starter and 10KST1 sets, primary screen (AID 487);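 further: 100% = median nuclei count of all wells on the same plate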
- Experimental context: HUVEC TNFalpha-induced E-selectin immunofluorescence imaging, at 2 µM; measured here: cell number, toxicity
Result type: nuclei count (%)
Please state the figure in %; there is no need to write the unit.

{"Compound": "Nc1ccc(S(=O)(=O)c2cccc(N)c2)cc1", "nuclei count (%)": 108}
{"Compound": "Cc1cc(/N=C/N(C)C)on1", "nuclei count (%)": 104}
{"Compound": "CC(=O)Nc1ccc(S(=O)(=O)N2CCN(c3cc(C)nc4ccccc34)CC2)cc1", "nuclei count (%)": 120}
{"Compound": "CCCC(=O)Nc1ccc(C(=O)O)cc1NC(=O)CCC", "nuclei count (%)": 89.9}
{"Compound": "NC(=O)CSc1nnc(-c2cnccn2)n1-c1ccccc1", "nuclei count (%)": 94.9}
{"Compound": "COC(=O)C1=C(C)Nc2ncnn2C1c1ccc(C)o1 (configuration not stated)", "nuclei count (%)": 108}

State the recorded nuclei count for this entry: Cc1cc(C)cc(Nc2ncc3c(n2)CC(c2ccco2)CC3=O)c1 (configuration not stated)
114

Also, CCCCOC(=O)Nc1nccs1 please.
116

Also, O=C(Cn1ccc2ccccc2c1=O)NCCC(=O)N1CCN(C(=O)c2ccco2)CC1 please.
97.8

Also, COc1ccccc1C(=O)Nc1nc2ccc(S(C)(=O)=O)cc2s1 please.
132

Also, O=C(COc1ccccc1)Nc1ccccc1N1CCN(c2ccccc2)CC1 please.
110

Also, O=C(O)C1CC(=O)N(c2ccc(OCc3ccccc3Cl)cc2)C1 (configuration not stated) please.
94.8

Also, NC(=O)CSc1nnc(-c2ccc(O)cc2)n1Cc1ccco1 please.
93.2

Also, Cc1ccccc1-c1nc(CN2CCC(C(=O)N3CCC(C(N)=O)CC3)CC2)c(C)o1 please.
87.8

Also, CCC(=O)N1CCc2cc(Br)cc(S(=O)(=O)N3CCCCCC3)c21 please.
99.9

Also, Cc1cc(C)n2c(SCC(=O)Nc3cc(C)on3)nnc2n1 please.
100

---

- Method notes: TLR3 IRF3 reporter activation blockers – cell-based, poly I:C stimulus, luciferase, 10K MLSCN set, primary screen (AID 602277)
- Experimental context: HEK293-TLR3 RL24 IRF3 luciferase reporter, at 10 µM
Activity calls are given as the source filed them.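 The calls were made as follows: active = inhibition of the reporter signal at or above 50%; inactive = inhibition below 50%.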
Response enum: active, inactive

Solved cases (10 shown):
{"Molecule": "Cc1cc(Br)c(S(=O)(=O)n2nnc3ccccc32)cc1C", "Discrete label": "inactive"}
{"Molecule": "CCSc1nc(O)c(CC)c(=O)n1C(C)CC (configuration not stated)", "Discrete label": "inactive"}
{"Molecule": "CCOCCCNC(=O)C(c1ccccc1)N(Cc1ccc2c(c1)OCO2)C(=O)CNC(C)=O (configuration not stated)", "Discrete label": "inactive"}
{"Molecule": "CCOc1ccc(Cn2nnc(C(=O)Nc3ccc(OC)cc3OC)c2N)cc1", "Discrete label": "inactive"}
{"Molecule": "COc1ccc2cc(CN(CCO)C(=O)c3ccc(Br)cc3)c(=O)[nH]c2c1", "Discrete label": "inactive"}
{"Molecule": "O=S1(=O)Nc2c(ccc3cccnc23)-c2ccccc21", "Discrete label": "inactive"}
{"Molecule": "CC(C)[C@H](NC(=O)[C@@H]1CSCN1C(=O)OC(C)(C)C)C(=O)NCC1CCC(C(=O)O)CC1 (some centres not stated)", "Discrete label": "inactive"}
{"Molecule": "O=C(O)CCCc1nc(-c2ccccc2)no1", "Discrete label": "inactive"}
{"Molecule": "COc1cc(C(=O)Nc2cc(-c3ccccc3)[nH]n2)cc(OC)c1OC", "Discrete label": "inactive"}
{"Molecule": "Cc1cc2ncc(-c3ccc(Cl)cc3)c(N)n2n1", "Discrete label": "inactive"}

For CC(=O)NCCc1ccc(S(=O)(=O)NCc2ccc3c(c2)OCO3)cc1 , what call appears in the results of this test?
inactive

Also, O=C1CC(N2CCOCC2)C(=O)N1c1ccc2c(c1)OCO2 (configuration not stated) please.
inactive

---

- Method notes: inhibitors of TNFa-induced NFkB p65 translocation, primary screen, imaging, HUVEC, MLSMR starter and 10KST1 sets (AID 438);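 further: compound added about 3h40 before a 20 min TNFalpha stimulation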
- Experimental context: HUVEC TNFa-induced p65 nuclear translocation; measured here: nuclei count (cytotoxicity indicator), at 2.08 µM
Result type: cell count
Field format: numeric only.

{"Cpd smiles": "Cn1cnc2c(N3CCCCC3)nccc21", "cell count": 720}

State the recorded cell count for this entry: O=C(CSc1nnc(-c2ccc(Br)cc2)n1C1CCCCC1)N1CCCC1
306

Also, O=C(Nc1ccc(Cc2ccncc2)cc1)C1CC1 please.
447

Also, COc1cc(SC)ccc1C(=O)Nc1ccccc1C#N please.
417

Also, CCN(CC)C(=O)COc1ccc2oc(C)c(C(=O)OC(C)C)c2c1 please.
455

Also, O=C(CSc1nc2ccccc2c(=O)n1CCC(=O)N1CCCCC1)NCc1ccccc1 please.
495

---

- Method notes: reduction of polyQ htt aggregates in cells – imaging, exon1htt(103Q)mCFP cells, high-content imaging, primary screen (AID 483);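 further: compound exposure lasted 3 days before fixation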;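 on nuclei count: percent of the per-plate median nuclei count of sample wells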
- Experimental context: exon1htt(103Q)mCFP cell line, aggregate imaging, at 2 µM; measured here: cell count, toxicity
Result type: nuclei count (%)
Please state the figure in %; there is no need to write the unit.

{"Compound": "O=C(Nc1cc(C(F)(F)F)ccc1Cl)C1CCN(c2nnc(-n3cccc3)s2)CC1", "Result type": "nuclei count", "Number": 84.2}
{"Compound": "O=C(O)COc1ccc(Oc2ccccc2)cc1", "Result type": "nuclei count", "Number": 103}

State the recorded nuclei count for this entry: COCCn1cc(C(=O)c2ccccc2OCC(=O)Nc2cc(C)on2)cc(C#N)c1=O
77.9

Also, N#Cc1c(NC(=O)CSc2nnnn2C2CCCC2)sc2c1CCCC2 please.
114

Also, CC1=C(C(=O)Nc2ccccc2C)C(c2ccc(C)o2)N2C(=O)CSC2=N1 (stereo unspecified) please.
106

Also, CC(=O)C1=C(C)OC(N)=C(C#N)C1c1ccncc1 (stereo unspecified) please.
97.8

Also, O=S1(=O)C=CC(Nc2cccc(Cl)c2)C1 (stereo unspecified) please.
97.2

Also, CCN(CC)C(=O)COc1ccc2oc(C)c(C(=O)OC(C)C)c2c1 please.
108

Also, Cc1ccc(S(=O)(=O)N2CCCC(C(=O)NC3=NCCS3)C2)cc1 (stereo unspecified) please.
111

Also, Cn1c(=O)c2c(nc(SCCCO)n2Cc2ccccc2Cl)n(C)c1=O please.
96

Also, CCCCOC(=O)Nc1nccs1 please.
116

Sourced from PubChem BioAssay
